System: 777334-354-R2-J4-PDC tumor spheroids with HUVEC/MSC, viability;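 also: spheroids exposed to compounds for 7 days before readout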
Protocol: Anticancer human tumor 777334-354-R2-J4-PDC patient-derived pancreatic adenocarcinoma cell line growth inhibition [GQUAD]
Condition notes: second compound 0.1 µM; first compound 1 µM; stronger effect = lower value
Endpoint name: viability, T/C (%)

Molecule	System	Test value
CC1COCCN1c1cc(C2(O)CC3CCC(C2)O3)c2cnn(-c3ccn[nH]3)c2n1 (stereo unspecified) + CN(C)c1ccc(Nc2c3ccc(NC(=O)CCN4CCCC4)cc3nc3cc(NC(=O)CCN4CCCC4)ccc23)cc1	777334-354-R2-J4-PDC tumor spheroids with HUVEC/MSC, viability	43.3
Nc1ccn(C2OC(CO)C(O)C2(F)F)c(=O)n1 (stereo unspecified) + Cc1cnc(CNC(=O)c2c(=O)c3ccc(N4CCCN(C)CC4)nc3n3c2sc2ccccc23)cn1	777334-354-R2-J4-PDC tumor spheroids with HUVEC/MSC, viability	45.7
O=c1[nH]cc(F)c(=O)[nH]1 + Cc1[nH]c2ccc(F)cc2c1-c1nc2c3cccnc3c3ncccc3c2[nH]1	777334-354-R2-J4-PDC tumor spheroids with HUVEC/MSC, viability	72
C=CC(=O)N1CCN(c2nc(=O)n(-c3c(C)ccnc3C(C)C)c3nc(-c4c(O)cccc4F)c(F)cc23)C(C)C1 (stereo unspecified) + Cc1cnc(CNC(=O)c2c(=O)c3ccc(N4CCCN(C)CC4)nc3n3c2sc2ccccc23)cn1	777334-354-R2-J4-PDC tumor spheroids with HUVEC/MSC, viability	89.9
CCCS(=O)(=O)Nc1ccc(F)c(C(=O)c2c[nH]c3ncc(-c4ccc(Cl)cc4)cc23)c1F + Cc1[nH]c2ccc(F)cc2c1-c1nc2c3cccnc3c3ncccc3c2[nH]1	777334-354-R2-J4-PDC tumor spheroids with HUVEC/MSC, viability	122
COc1ncnc(C2CC2)c1-c1ncc2cnn(Cc3ccc(-c4nc(C(F)(F)F)cn4C(C)C)cc3)c2n1 + Cc1cnc(CNC(=O)c2c(=O)c3ccc(N4CCCN(C)CC4)nc3n3c2sc2ccccc23)cn1	777334-354-R2-J4-PDC tumor spheroids with HUVEC/MSC, viability	80.8

Where do the numbers come from? From PubChem BioAssay AID2060499.
